# Measured Target: T1, human 5T4 antigen (human, UniProt Q13641 32-355, limits assumed)
# T1 sequence: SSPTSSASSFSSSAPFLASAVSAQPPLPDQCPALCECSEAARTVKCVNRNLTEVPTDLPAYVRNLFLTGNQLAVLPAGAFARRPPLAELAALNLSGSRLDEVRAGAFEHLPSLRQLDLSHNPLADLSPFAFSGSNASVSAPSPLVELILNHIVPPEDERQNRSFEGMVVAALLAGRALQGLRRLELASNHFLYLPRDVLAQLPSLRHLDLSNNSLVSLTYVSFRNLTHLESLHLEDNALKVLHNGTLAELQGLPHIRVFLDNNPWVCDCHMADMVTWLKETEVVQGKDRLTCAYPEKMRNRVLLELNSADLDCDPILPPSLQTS
# Protocol Description: BIACORE (SPR); human 5T4 antigen immobilized on CM5 chip
I'd be grateful if you could share measured kon for these entries.
Form entry: value (M⁻¹ s⁻¹) — number only.

Name the recorded kon for chimeric A1 antibody bearing C67F mutation (antibody, V domains shown, also called Chimeric A1 + C67F; ChiA1+C67F) VH: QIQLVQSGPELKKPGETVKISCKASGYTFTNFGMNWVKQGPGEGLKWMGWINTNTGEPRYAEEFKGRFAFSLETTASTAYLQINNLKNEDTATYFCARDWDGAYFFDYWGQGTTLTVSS VL: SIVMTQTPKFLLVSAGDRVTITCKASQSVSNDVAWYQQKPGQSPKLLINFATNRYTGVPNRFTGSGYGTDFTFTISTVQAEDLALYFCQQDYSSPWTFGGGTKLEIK .
170000

Also, chimeric A1 antibody (antibody, V domains shown, Biotinylated when used as the labelled competitor in Table 13; the site is not stated., also called ChiA1; ChiA1 γ4) VH: QIQLVQSGPELKKPGETVKISCKASGYTFTNFGMNWVKQGPGEGLKWMGWINTNTGEPRYAEEFKGRCAFSLETTASTAYLQINNLKNEDTATYFCARDWDGAYFFDYWGQGTTLTVSS VL: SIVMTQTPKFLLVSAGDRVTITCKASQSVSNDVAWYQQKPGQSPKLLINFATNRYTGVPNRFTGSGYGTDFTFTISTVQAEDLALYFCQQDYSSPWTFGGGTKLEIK please.
150000

Okay, and chimeric A2 antibody (antibody, human IgG4, V domains shown, also called ChiA2; ChiA2 γ4) VH: QVQLQQSRPELVKPGASVKMSCKASGYTFTDYVISWVKQRTGQGLEWIGEIYPGSNSIYYNEKFKGRATLTADKSSSTAYMQLSSLTSEDSAVYFCAMGGNYGFDYWGQGTTLTVSS VL: QIVLTQSPAIMSASLGERVTLTCTASSSVNSNYLHWYQQKPGSSPKLWIYSTSNLASGVPARFSGSGSGTSYSLTISSMEAEDAATYYCHQYHRSPLTFGAGTKLELK ?
140000

// next record chimeric A3 antibody bearing C91Y mutation (antibody, V domains shown, also called Chimeric A3 + C91Y; ChiA3+C91Y) VH: EVQLVESGGGLVQPKGSLKLSCAASGFTFNTYAMNWVRQAPGKGLEWVARIRSKSNNYATYYADSVKDRFTISRDDSQSMLYLQMNNLKTEDTAMYYCVRQWDYDVRAMNYWGQGTSVTVSS VL: DIVMTQSHIFMSTSVGDRVSITCKASQDVDTAVAWYQQKPGQSPKLLIYWASTRLTGVPDRFTGSGSGTDFTLTISNVQSEDLADYFCQQYSSYPYTFGGGTKLEIK
27000
